tested on: HEK-293T; assay: Multiplex assay against HEK293T; type: toxicity, cell-based; conditions: human, 48 h, 10 µM, compound concentration 10 uM, replicate 1
observation_type: Population Hoechst High Intensity Objects (%)
Give your result in % as a bare value.

Previously resolved entries follow.
- compound: "CCCn1c(=O)c2[nH]c(C3CCCC3)nc2n(CCC)c1=O"
  observed_value: 3
- compound: "O=S(=O)(c1ccccc1)c1cnc2c(N3CCNCC3)cccc2c1 [INTEPIRDINE]"
  observed_value: 4
- compound: "CCOc1c2c(c(OCC)c3ncccc13)CN(c1ccc(CS(=O)(=O)NC(=O)Cc3ccccc3OC)cc1C)C2=O"
  observed_value: 4
- compound: "N#Cc1c(N)nc(SCc2csc(-c3ccc(Cl)cc3)n2)c(C#N)c1-c1ccc(OCCO)cc1"
  observed_value: 12

Query compound follows.
**Q:** What does the data say about its Population Hoechst High Intensity Objects (%)? Entry: c1cc(OCCCN2CCCCC2)ccc1CN1CCCCC1
**A:** 8
